Data origin, for the record: patent US20070004634A1

target: IGF-1R on cells (MCF-7, MiaPaCa, FDC-P2 cells expressing human IGF-1R) (human, UniProt P08069 31-1367); assay: cell-based or functional assay
Positions of bridges follow the written chain, without caps; N, C: chain ends. No end group written: not given here.
PROPERTY LABEL: Cellular IC50 (M), FDC-P2 cell proliferation
The reply should be a number in M, with the unit left off.

Consider the following illustrative entries.
// TFYSCLASLLTGTPQPNRGPWERCRKK (disulfide 5-24 (inferred)) [RP6KK] : Cellular IC50 (M), FDC-P2 cell proliferation value = 1e-06

Data point: VGRASGFPENFYDWFGRQLSLQSGEQ [H2C-A-H6] ; Cellular IC50 (M), FDC-P2 cell proliferation = 3e-07

The binder GSLDESFYDWFERQLG [RP9] showed Cellular IC50 (M), FDC-P2 cell proliferation equal to 2e-06

Next:
The binder identified as CWARPCGDAANFYDWFVQQAS (also called C1 (D112); D112) [C1] registered its Cellular IC50 (M), FDC-P2 cell proliferation at 4e-06
